Taken from patent US7563801B2.

ASSAY PROTOCOL: Single dose rising study of the encapsulated formulation in healthy human volunteers, pharmacokinetics
Type: in vivo
CONDITION DESCRIPTION: plasma, oral capsule, single dose 10 mg, read-out: Cmax (mean maximum plasma concentration)

>  <STRUCTURE STRING>
C[C@@H](OC[C@@]1(c2ccccc2)CC[C@]2(CCC(=O)N2)CN1)c1cc(C(F)(F)F)cc(C(F)(F)F)c1

>  <UNITS OF MEASURE>
ng/mL

>  <Cmax>
52.7

$$$$

---

ASSAY PROTOCOL: Single dose rising study of the encapsulated formulation in healthy human volunteers, pharmacokinetics
Format: in vivo
CONDITION DESCRIPTION: plasma, oral capsule, single dose 25 mg, read-out: Half Life T ½ (converted)
Experimental: Another aspect of the present invention is the provision of a pharmaceutical formulation comprising a hydrochloride monohydrate salt of Formula II in a capsule oral dosage form which has a Pharmacokinetic (PK) profile obtained under single dose rising rate study conditions in accordance with Table VIII (average of eight study subjects). Blood samples were collected from each volunteer at predose (hour 0) and 0.25, 0.5, 0.75, 1, 1.5, 2, 3, 4, 6, 8, 12, 16, 24, 36, 48, and 72 hours. […]
PARAMETER MEASURED: half-life (days)

>  <STRUCTURE STRING>
C[C@@H](OC[C@@]1(c2ccccc2)CC[C@]2(CCC(=O)N2)CN1)c1cc(C(F)(F)F)cc(C(F)(F)F)c1

>  <REPORTED VALUE>
7.62

$$$$
